Overview of recorded protein stability index for various variants
B1: KRT33B (parent)
chain: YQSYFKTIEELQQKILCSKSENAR

Variants of: B1
assay_text: protein stability index of a GFP-peptide fusion (GPS, HEK-293T) (PSI 1-6); higher = more stable;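 further: lentivirally expressed fusions sorted by FACS into six bins by GFP to DsRed ratio, PSI derived from sequencing read proportions per bin multiplied by bin number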
condition_label: c terminus: a fixed tail appended
In your answer, state the number alone without any accompanying words.

input: // protein stability index lookup, key: YQSYFKTIEELQQKILCSKSSNAR [E21S]
output: 1.54

input: // protein stability index lookup, key: YQSYFKTIEELQQKILCSKSPNAR [E21P]
output: 1.8
